Assay: Approximate solubility by solvent aliquot addition, visual inspection
Assay type: physicochemical
Conditions: hexanes, organic solvent or mixture, thermodynamic from solid, solvent Hexanes
recorded endpoint: solubility

Please give the documented solubility of "Nc1ncn([C@H]2C[C@H](O)[C@@H](CO)O2)c(=O)n1"
< 1000 µg/mL

----------
Test: Approximate solubility by solvent aliquot addition, visual inspection
Type: physicochemical
Settings: 2-propanol, organic solvent or mixture, thermodynamic from solid, solvent 2-Propanol
recorded endpoint: solubility

Let me know recorded solubility for "Nc1ncn([C@H]2C[C@H](O)[C@@H](CO)O2)c(=O)n1" , thanks.
< 1000 µg/mL

----------
Assay: Approximate solubility by solvent aliquot addition, visual inspection
Format: physicochemical
Settings: nitromethane, organic solvent or mixture, thermodynamic from solid, solvent Nitromethane
Protocol: Solvents were either reagent or HPLC grade. The aliquots were typically either 100 μL or 1 mL. Between additions, the mixture was typically shaken or sonicated. Whether the solids dissolved was judged by visual inspection. Solubilities were estimated from these experiments based on the total solvent used to provide complete dissolution. Solubilities were estimated from these experiments based on the total solvent used to give a solution. Duplicate runs were averaged.
recorded endpoint: solubility

Quickly give me recorded solubility for Nc1ncn([C@H]2C[C@H](O)[C@@H](CO)O2)c(=O)n1 [Decitabine, 5-aza-2′-deoxycytidine]
< 1000 µg/mL

----------
Test: Approximate solubility by solvent aliquot addition, visual inspection
Assay type: physicochemical
Settings: methyl sulfide, organic solvent or mixture, thermodynamic from solid, solvent Methyl Sulfide
recorded endpoint: solubility

For the compound Nc1ncn([C@H]2C[C@H](O)[C@@H](CO)O2)c(=O)n1 [Decitabine, 5-aza-2′-deoxycytidine] , give its measured solubility value.
< 1000 µg/mL

----------
Test: Approximate solubility by solvent aliquot addition, visual inspection
Format: physicochemical
Settings: ethyl ether, organic solvent or mixture, thermodynamic from solid, solvent Ethyl Ether
recorded endpoint: solubility

Return value of solubility for input "Nc1ncn([C@H]2C[C@H](O)[C@@H](CO)O2)c(=O)n1" , no commentary.
< 1000 µg/mL

----------
Assay: Approximate solubility by solvent aliquot addition, visual inspection
Type: physicochemical
Settings: diethylamine, organic solvent or mixture, thermodynamic from solid, solvent Diethylamine
recorded endpoint: solubility

Kindly indicate its recorded solubility. Item: "Nc1ncn([C@H]2C[C@H](O)[C@@H](CO)O2)c(=O)n1"
< 1000 µg/mL

----------
Test: Approximate solubility by solvent aliquot addition, visual inspection
Format: physicochemical
Conditions: acetonitrile, organic solvent or mixture, thermodynamic from solid, solvent Acetonitrile
recorded endpoint: solubility

Input "Nc1ncn([C@H]2C[C@H](O)[C@@H](CO)O2)c(=O)n1" , output reported solubility.
< 1000 µg/mL

----------
Test: Approximate solubility by solvent aliquot addition, visual inspection
Format: physicochemical
Details: dichloromethane, organic solvent or mixture, thermodynamic from solid, solvent Dichloromethane
recorded endpoint: solubility

Given "Nc1ncn([C@H]2C[C@H](O)[C@@H](CO)O2)c(=O)n1" , respond with its solubility.
< 1000 µg/mL

----------
Assay: Approximate solubility by solvent aliquot addition, visual inspection
Format: physicochemical
Conditions: ethyl acetate, organic solvent or mixture, thermodynamic from solid, solvent Ethyl Acetate
recorded endpoint: solubility

Specify reported solubility for the molecule shown: "Nc1ncn([C@H]2C[C@H](O)[C@@H](CO)O2)c(=O)n1"
< 1000 µg/mL

----------
Assay: Approximate solubility by solvent aliquot addition, visual inspection
Format: physicochemical
Details: dichloromethane:ethanol (1:1), organic solvent or mixture, thermodynamic from solid, solvent Dichloromethane:Ethanol (1:1)
recorded endpoint: solubility

Determine its reported solubility: Nc1ncn([C@H]2C[C@H](O)[C@@H](CO)O2)c(=O)n1 [Decitabine, 5-aza-2′-deoxycytidine]
< 1000 µg/mL
